Test: In vivo pharmacokinetics in Sprague Dawley rats
Design: species or system rat
Conditions: Sprague-Dawley, rat; male SD rats, 20 mg/kg IP, brain; read-out: half-life in the brain
Reported Endpoint: half-life

- Compound: "CN(C)CCCn1c(SCCc2c[nH]c3ccccc23)nc2ccc(F)cc2c1=O.Cl [TG15-132S]"
  Reported Endpoint: "half-life"
  Observed: "> 5 h"

###

Experiment: In vivo pharmacokinetics in Sprague Dawley rats
Set-up: species or system rat
Details: male, Sprague-Dawley, rat, brain and plasma; SD rats, single 20 mg/kg IP, up to 8 h; read-out: brain-to-plasma ratio up to 8 h

- Molecule: "CN(C)CCCn1c(SCCc2c[nH]c3ccccc23)nc2ccc(Cl)cc2c1=O.Cl [TG15-139S]"
  Kp at 8 h: "> 10"

meta.source: patent US20240208944A1
